Data provenance is paper PMC7156458.

target: UniProt P05067; experiment: Th-T (thioflavin-T) assay of Aβ42 aggregation; type: biochemical; conditions: reading M126; compound at 50 (head suffix _50)
Assign class 1 to entries whose Th-T fluorescence, mean of three wells (Fig. 7a) meets or exceeds 0.5; assign class 0 to the rest.

Ask: Entry C=C1CCC2C(C)(CCC=C(C)C)C(O)CCC2(C)C1Cc1c(OC)oc(CO)c(C)c1=O (centres unmarked) : is its Th-T fluorescence, mean of three wells (Fig. 7a) no less than 0.5?
Result: class 1

Ask: Entry C=C1CCC2C(C)(CCC=C(C)C)C(O)CCC2(C)C1Cc1c(OC)oc(CO)c(C(=O)OC)c1=O (centres unmarked) : is its Th-T fluorescence, mean of three wells (Fig. 7a) no less than 0.5?
Result: class 0

Ask: Entry C=C1CCC2C(C)(CCC=C(C)C)C(O)CCC2(C)C1Cc1c(OC)oc(C)c(C(=O)OC)c1=O (centres unmarked) : is its Th-T fluorescence, mean of three wells (Fig. 7a) no less than 0.5?
Result: class 1

Ask: Entry C=C1CC[C@@H]2[C@](C)(CC[C@H]3O[C@H](C=C(C)C)C[C@@]23C)[C@@H]1Cc1c(OC)oc(CO)c(C)c1=O : is its Th-T fluorescence, mean of three wells (Fig. 7a) no less than 0.5?
Result: class 1

###

tested on: DL1 cells; test: cytotoxicity in Drosophila DL1 cells; format: cell-based; conditions: DL1 cells, cytotoxicity, average±SEM
readout.label: IC50 (µM)
Number only, in µM; omit the unit.

Ask: Given the molecule C=C1CCC2C(C)(CCC=C(C)C)C(O)CCC2(C)C1Cc1c(OC)oc(C)c(C)c1=O (centres unmarked) [Compound 15, viridoxin A hydrolysate] , write its reported IC50.
Result: 6.1

Ask: Given the molecule C=C1CCC2C(C)(CCC=C(C)C)C(O)CCC2(C)C1Cc1c(OC)oc(C)c(C)c1=O (centres unmarked) [Compound 11] , write its reported IC50.
Result: 0.4

###

Give measured Th-T fluorescence, mean of three wells for each item. Keep answers brief.
target: Aβ42 (Homo sapiens, UniProt P05067); assay: Th-T (thioflavin-T) assay of Aβ42 aggregation; format: biochemical; conditions: Supplementary Fig. 47 source data; measurement M41 of time course
Sequence (P05067 672-713): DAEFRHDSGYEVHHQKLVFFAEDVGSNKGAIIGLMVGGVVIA
A bare number is all that is needed in reply.

Ask: Given the compound C=C1CC[C@H]2[C@]3(C)C[C@H](C=C(C)C)O[C@H]3CC[C@]2(C)[C@@H]1Cc1c(OC)oc(CO)c(C)c1=O , write its reported Th-T fluorescence, mean of three wells.
Result: 3.831

Ask: Given the compound C=C1CC[C@H]2[C@]3(C)C[C@H](C=C(C)C)O[C@H]3CC[C@]2(C)[C@@H]1Cc1c(OC)oc(C)c(C)c1=O , write its reported Th-T fluorescence, mean of three wells.
Result: 4.132

Ask: Given the compound CC(C)=CCC/C(C)=C/CC/C(C)=C/CC/C(C)=C/Cc1c(O)c(C)c(C)oc1=O , write its reported Th-T fluorescence, mean of three wells.
Result: 2.789

Ask: Given the compound C=C1CC[C@@H]2[C@](C)(CC[C@H]3O[C@H](C=C(C)C)C[C@@]23C)[C@@H]1Cc1c(O)c(C)c(C)oc1=O , write its reported Th-T fluorescence, mean of three wells.
Result: 3.079

Ask: Given the compound C=C1CCC2C(C)(CCC=C(C)C)C(=O)CCC2(C)C1Cc1c(O)c(C)c(C)oc1=O (stereo not drawn) , write its reported Th-T fluorescence, mean of three wells.
Result: 2.185

Ask: Given the compound C=C1CC[C@H]2[C@]3(C)C[C@@H](C=C(C)C)O[C@H]3CC[C@]2(C)[C@@H]1Cc1c(O)c(C)c(C)oc1=O , write its reported Th-T fluorescence, mean of three wells.
Result: 2.62
